# key: entry, value: pKi
TARGET OR TEST SYSTEM: Neuropeptide Y receptor type 1 (Homo sapiens)
Sequence (P25929 whole entry): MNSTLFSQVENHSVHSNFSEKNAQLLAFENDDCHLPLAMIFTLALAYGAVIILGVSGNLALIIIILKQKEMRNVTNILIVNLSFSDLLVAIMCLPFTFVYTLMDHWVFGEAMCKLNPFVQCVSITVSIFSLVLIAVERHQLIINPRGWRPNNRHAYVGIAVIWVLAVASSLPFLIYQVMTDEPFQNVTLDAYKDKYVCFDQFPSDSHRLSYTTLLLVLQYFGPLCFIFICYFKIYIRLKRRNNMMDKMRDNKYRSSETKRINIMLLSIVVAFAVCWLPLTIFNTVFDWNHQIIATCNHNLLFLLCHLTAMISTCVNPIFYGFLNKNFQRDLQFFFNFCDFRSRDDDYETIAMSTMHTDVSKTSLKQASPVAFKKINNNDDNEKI
ASSAY EXPLANATION: Displacement of Cy5-pNPY from human Y1 receptor expressed in HEL cells after 90 to 120 mins by flow cytometry
Type: cell-based
pKi: −log10 of the molar value.

Ac-RHYINLITRLRY-NH2	< 6.00

# input for lookup
Query: Name the reported pKi value associated with the substance Ac-RHYINLITRQRY-NH2
Response: < 6.00

---

TARGET OR TEST SYSTEM: Neuropeptide Y receptor type 2 (Homo sapiens)
ASSAY EXPLANATION: Binding affinity to human Y2 receptor expressed in human SMS-KAN cells by radioligand binding assay
Assay type: cell-based
MEASUREMENT NAME: Ki (nM)
Your answer is read as nM, so omit the unit and give the number.

Query: Form: Entry = Ac-RHYINLITRQRY-NH2 | System = Neuropeptide Y receptor type 2 (Homo sapiens) | Ki = ____
Response: 7.1

---

TARGET OR TEST SYSTEM: Neuropeptide Y receptor type 5 (Homo sapiens)
ASSAY EXPLANATION: Displacement of Cy5-pNPY from human Y5 receptor expressed in human HEC-1B cells after 90 to 120 mins by flow cytometry
Assay type: cell-based
Residues, ends and D or L forms follow the SMILES beside them.
MEASUREMENT NAME: Ki

Query: Name the reported Ki value associated with the molecule CC[C@H](C)[C@H](NC(=O)[C@H](Cc1ccc(O)cc1)NC(=O)[C@H](CCCNC(=N)N)NC(=O)[C@H](CCCNC(=N)N)NC(C)=O)C(=O)N[C@@H](CC(N)=O)C(=O)N[C@@H](CC(N)=O)C(=O)N[C@@H](CC(C)C)C(=O)N[C@H](C(=O)N[C@@H](CCCNC(=N)N)C(=O)N[C@H]1CC[C@H]1C(=O)N[C@@H](CCCNC(=N)N)C(=O)N[C@@H](Cc1ccc(O)cc1)C(N)=O)[C@@H](C)O (HELM PEPTIDE1{[ac].R.R.Y.I.N.N.L.T.R.[O=C([C@@H]1CC[C@@H]1N[*:1])[*:2]].R.Y.[am]}$$$$V2.0)
Response: > 1 µM

---

TARGET OR TEST SYSTEM: Neuropeptide Y receptor type 2 (Homo sapiens, UniProt P49146)
ASSAY EXPLANATION: Displacement of Cy5-pNPY from human Y2 receptor expressed in CHO cells after 90 to 120 mins by flow cytometry
Type: cell-based
Residues, ends and D or L forms follow the SMILES beside them.
MEASUREMENT NAME: pKi
Please keep in mind that pKi is minus log10 of the molar concentration; only the number is needed.

Query: Name the reported pKi value associated with the compound CCCC[C@H](NC(=O)[C@H](CC(N)=O)NC(=O)[C@@H](NC(=O)[C@H](Cc1ccc(O)cc1)NC(=O)[C@H](CCCNC(=N)N)NC(=O)[C@H](CCCNC(=N)N)NC(C)=O)[C@@H](C)CC)C(=O)N[C@@H](CC(C)C)C(=O)N[C@H](C(=O)N[C@@H](CCCNC(=N)N)C(=O)N[C@H]1CC[C@H]1C(=O)N[C@@H](CCCNC(=N)N)C(=O)N[C@@H](Cc1ccc(O)cc1)C(N)=O)[C@@H](C)O (HELM PEPTIDE1{[ac].R.R.Y.I.N.[Nle].L.T.R.[O=C([C@@H]1CC[C@@H]1N[*:1])[*:2]].R.Y.[am]}$$$$V2.0)
Response: 6.15

---

TARGET OR TEST SYSTEM: Neuropeptide Y receptor type 2 (Homo sapiens, UniProt P49146)
Sequence (P49146 whole entry): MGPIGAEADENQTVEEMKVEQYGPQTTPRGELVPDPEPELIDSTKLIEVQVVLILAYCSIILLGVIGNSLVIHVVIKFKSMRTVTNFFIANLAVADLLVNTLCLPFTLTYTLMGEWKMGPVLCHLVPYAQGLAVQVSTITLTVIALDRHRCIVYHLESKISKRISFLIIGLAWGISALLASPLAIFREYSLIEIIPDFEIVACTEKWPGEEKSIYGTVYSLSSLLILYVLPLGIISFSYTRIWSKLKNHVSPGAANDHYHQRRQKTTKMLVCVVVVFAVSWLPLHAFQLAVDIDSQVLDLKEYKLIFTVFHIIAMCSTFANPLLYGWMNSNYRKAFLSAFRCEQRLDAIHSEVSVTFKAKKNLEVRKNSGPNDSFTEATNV
ASSAY EXPLANATION: Displacement of Cy5-pNPY from human Y2 receptor expressed in CHO cells after 90 to 120 mins by flow cytometry
Assay type: cell-based
MEASUREMENT NAME: Ki (µM)
Your answer is read as µM, so omit the unit and give the number.

Query: Form: Entry = Ac-RHYINLITRQRY-NH2 | System = Neuropeptide Y receptor type 2 (Homo sapiens, UniProt P49146) | Ki = ____
Response: 1.51

---

TARGET OR TEST SYSTEM: Neuropeptide Y receptor type 5 (Homo sapiens, UniProt Q15761)
Sequence (Q15761 whole entry): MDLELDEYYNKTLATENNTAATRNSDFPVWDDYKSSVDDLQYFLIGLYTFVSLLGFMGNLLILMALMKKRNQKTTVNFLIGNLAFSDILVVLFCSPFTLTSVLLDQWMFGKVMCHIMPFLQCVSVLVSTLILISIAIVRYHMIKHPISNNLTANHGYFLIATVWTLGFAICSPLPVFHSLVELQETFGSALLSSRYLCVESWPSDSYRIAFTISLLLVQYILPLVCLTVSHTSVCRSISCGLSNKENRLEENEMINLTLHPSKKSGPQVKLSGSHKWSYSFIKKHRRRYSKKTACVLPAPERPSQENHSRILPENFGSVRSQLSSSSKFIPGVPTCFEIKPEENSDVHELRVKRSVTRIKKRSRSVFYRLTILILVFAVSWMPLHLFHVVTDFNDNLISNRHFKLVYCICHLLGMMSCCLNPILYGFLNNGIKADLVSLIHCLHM
ASSAY EXPLANATION: Displacement of Cy5-pNPY from human Y5 receptor expressed in human HEC-1B cells after 90 to 120 mins by flow cytometry
Type: cell-based
Residues, ends and D or L forms follow the SMILES beside them.
MEASUREMENT NAME: Ki

Check out these entries, answers already filled in.
CC(=O)N[C@@H](Cc1ccc(O)cc1)C(=O)N[C@@H](CCCNC(=N)N)C(=O)N[C@H]1CCC[C@H]1C(=O)N[C@@H](CCCN=C(N)N)C(=O)N[C@@H](Cc1ccc(O)cc1)C(N)=O (HELM PEPTIDE1{[ac].Y.R.[O=C([C@@H]1CCC[C@@H]1N[*:1])[*:2]].R.Y.[am]}$$$$V2.0)	> 1000 nM
CCCC[C@H](NC(=O)[C@H](CC(N)=O)NC(=O)[C@@H](NC(=O)[C@H](Cc1ccc(O)cc1)NC(=O)[C@H](CCCNC(=N)N)NC(=O)[C@H](CCCNC(=N)N)NC(C)=O)[C@@H](C)CC)C(=O)N[C@@H](CC(C)C)C(=O)N[C@H](C(=O)N[C@@H](CCCNC(=N)N)C(=O)N1CCC[C@H]1C(=O)N[C@@H](CCCNC(=N)N)C(=O)N[C@@H](Cc1ccc(O)cc1)C(N)=O)[C@@H](C)O (HELM PEPTIDE1{[ac].R.R.Y.I.N.[Nle].L.T.R.P.R.Y.[am]}$$$$V2.0)	> 1000 nM

# input for lookup
Query: Name the reported Ki value associated with the compound CC[C@H](C)[C@H](NC(=O)[C@H](Cc1ccc(O)cc1)NC(=O)[C@H](Cc1cnc[nH]1)NC(=O)[C@H](CCCNC(=N)N)NC(C)=O)C(=O)N[C@@H](CC(N)=O)C(=O)N[C@@H](CC(C)C)C(=O)N[C@H](C(=O)N[C@H](C(=O)N[C@@H](CCCNC(=N)N)C(=O)N[C@H]1C[C@@H](C(=O)N[C@@H](CCCNC(=N)N)C(=O)N[C@@H](Cc2ccc(O)cc2)C(N)=O)C1(C)C)[C@@H](C)O)[C@@H](C)CC (HELM PEPTIDE1{[ac].R.H.Y.I.N.L.I.T.R.[CC1(C)[C@@H](N[*:1])C[C@H]1C(=O)[*:2]].R.Y.[am]}$$$$V2.0)
Response: > 1000 nM

---

TARGET OR TEST SYSTEM: UniProt:P25929
ASSAY EXPLANATION: Displacement of Cy5-pNPY from human Y1 receptor expressed in HEL cells after 90 to 120 mins by flow cytometry
Type: cell-based
Residues, ends and D or L forms follow the SMILES beside them.
MEASUREMENT NAME: Ki

Query: Name the reported Ki value associated with the compound CC[C@H](C)[C@H](NC(=O)[C@H](Cc1ccc(O)cc1)NC(=O)[C@H](CCCNC(=N)N)NC(=O)[C@H](CCCNC(=N)N)NC(C)=O)C(=O)N[C@@H](CC(N)=O)C(=O)N[C@@H](CC(N)=O)C(=O)N[C@@H](CC(C)C)C(=O)N[C@H](C(=O)N[C@@H](CCCNC(=N)N)C(=O)N[C@H]1CC[C@H]1C(=O)N[C@@H](CCCNC(=N)N)C(=O)N[C@@H](Cc1ccc(O)cc1)C(N)=O)[C@@H](C)O (HELM PEPTIDE1{[ac].R.R.Y.I.N.N.L.T.R.[O=C([C@@H]1CC[C@@H]1N[*:1])[*:2]].R.Y.[am]}$$$$V2.0)
Response: > 1000 nM
